Target: T1, hPRLR.mFc (soluble dimeric human PRLR) (human)
T1 construct: dimeric PRLR construct
T1 chain: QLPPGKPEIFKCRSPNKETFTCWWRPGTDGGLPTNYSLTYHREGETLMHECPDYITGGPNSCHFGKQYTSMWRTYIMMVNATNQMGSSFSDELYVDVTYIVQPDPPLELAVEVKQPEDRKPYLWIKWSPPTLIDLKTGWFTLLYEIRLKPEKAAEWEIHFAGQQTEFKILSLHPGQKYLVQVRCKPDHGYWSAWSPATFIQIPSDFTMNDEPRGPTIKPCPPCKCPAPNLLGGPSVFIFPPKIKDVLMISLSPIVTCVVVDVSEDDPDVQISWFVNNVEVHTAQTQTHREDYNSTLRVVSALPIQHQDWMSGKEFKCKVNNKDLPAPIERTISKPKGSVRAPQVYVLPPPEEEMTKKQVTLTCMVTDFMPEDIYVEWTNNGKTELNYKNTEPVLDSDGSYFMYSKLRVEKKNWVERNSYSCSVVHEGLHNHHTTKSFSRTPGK
Test: SPR Biacore, 25 C, mAb capture
Readings of T½ for the listed binders
Numeric only. Scale: h

binder | unit_abbrev | T½
H1H6975N (antibody, human IgG1, V domains shown, Tested with human IgG1 Fc (H1H); also called H2M6975N) VH: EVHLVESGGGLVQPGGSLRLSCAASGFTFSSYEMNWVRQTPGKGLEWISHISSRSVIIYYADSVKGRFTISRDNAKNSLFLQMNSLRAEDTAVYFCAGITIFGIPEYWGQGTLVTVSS VL: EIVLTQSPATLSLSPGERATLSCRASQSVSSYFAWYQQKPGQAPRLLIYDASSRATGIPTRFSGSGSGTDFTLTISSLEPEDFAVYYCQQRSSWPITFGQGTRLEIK | h | 9.8

Proceeding to the next binder to report its T½.
Request: Which T½ value belongs to H1H6774P (antibody, human IgG1, V domains shown, Human IgG1 Fc (H1H)) VH: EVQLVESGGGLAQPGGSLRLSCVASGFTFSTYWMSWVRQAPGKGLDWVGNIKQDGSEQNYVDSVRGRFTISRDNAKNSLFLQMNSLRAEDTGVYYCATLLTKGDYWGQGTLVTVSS VL: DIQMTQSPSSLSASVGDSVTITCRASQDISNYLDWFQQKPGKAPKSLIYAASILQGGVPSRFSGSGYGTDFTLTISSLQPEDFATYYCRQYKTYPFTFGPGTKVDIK ?
Response: 2.15

Ref: patent US20180185504A1
